The reported measurements were obtained from paper PMC8512764.

Parameter: IC50. Scope: all listed entries.
# MEASURED ON: α4β1 integrin (Homo sapiens, UniProt P05556+P13612)
# Construct: Jurkat cells endogenously express α4β1 integrin
# Sequence (P13612 34-1032): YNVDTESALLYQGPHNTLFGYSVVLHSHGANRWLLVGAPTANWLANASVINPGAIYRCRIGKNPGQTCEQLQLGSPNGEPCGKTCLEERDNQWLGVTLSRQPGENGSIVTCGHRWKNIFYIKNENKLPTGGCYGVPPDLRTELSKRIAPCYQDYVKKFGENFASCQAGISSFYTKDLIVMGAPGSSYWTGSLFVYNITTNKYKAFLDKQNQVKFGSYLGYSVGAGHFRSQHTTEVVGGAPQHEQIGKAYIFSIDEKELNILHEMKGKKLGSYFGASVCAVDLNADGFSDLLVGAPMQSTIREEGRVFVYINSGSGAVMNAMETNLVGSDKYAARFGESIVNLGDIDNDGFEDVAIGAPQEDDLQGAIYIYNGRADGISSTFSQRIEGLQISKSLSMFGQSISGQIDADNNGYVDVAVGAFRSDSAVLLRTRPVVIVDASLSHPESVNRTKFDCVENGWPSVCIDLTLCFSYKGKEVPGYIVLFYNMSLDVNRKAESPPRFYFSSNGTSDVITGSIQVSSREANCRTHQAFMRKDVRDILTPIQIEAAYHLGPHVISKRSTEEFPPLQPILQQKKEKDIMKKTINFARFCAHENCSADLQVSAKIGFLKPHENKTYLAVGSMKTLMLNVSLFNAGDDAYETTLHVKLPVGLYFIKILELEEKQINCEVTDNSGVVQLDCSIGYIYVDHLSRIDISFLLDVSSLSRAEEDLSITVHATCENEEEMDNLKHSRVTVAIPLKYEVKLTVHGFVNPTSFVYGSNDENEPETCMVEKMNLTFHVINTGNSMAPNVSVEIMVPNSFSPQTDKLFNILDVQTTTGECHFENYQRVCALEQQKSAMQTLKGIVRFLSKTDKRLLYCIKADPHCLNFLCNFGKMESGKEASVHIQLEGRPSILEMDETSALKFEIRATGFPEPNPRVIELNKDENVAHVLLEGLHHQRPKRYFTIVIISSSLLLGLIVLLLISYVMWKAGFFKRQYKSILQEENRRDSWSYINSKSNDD
# Sequence (P05556 21-798): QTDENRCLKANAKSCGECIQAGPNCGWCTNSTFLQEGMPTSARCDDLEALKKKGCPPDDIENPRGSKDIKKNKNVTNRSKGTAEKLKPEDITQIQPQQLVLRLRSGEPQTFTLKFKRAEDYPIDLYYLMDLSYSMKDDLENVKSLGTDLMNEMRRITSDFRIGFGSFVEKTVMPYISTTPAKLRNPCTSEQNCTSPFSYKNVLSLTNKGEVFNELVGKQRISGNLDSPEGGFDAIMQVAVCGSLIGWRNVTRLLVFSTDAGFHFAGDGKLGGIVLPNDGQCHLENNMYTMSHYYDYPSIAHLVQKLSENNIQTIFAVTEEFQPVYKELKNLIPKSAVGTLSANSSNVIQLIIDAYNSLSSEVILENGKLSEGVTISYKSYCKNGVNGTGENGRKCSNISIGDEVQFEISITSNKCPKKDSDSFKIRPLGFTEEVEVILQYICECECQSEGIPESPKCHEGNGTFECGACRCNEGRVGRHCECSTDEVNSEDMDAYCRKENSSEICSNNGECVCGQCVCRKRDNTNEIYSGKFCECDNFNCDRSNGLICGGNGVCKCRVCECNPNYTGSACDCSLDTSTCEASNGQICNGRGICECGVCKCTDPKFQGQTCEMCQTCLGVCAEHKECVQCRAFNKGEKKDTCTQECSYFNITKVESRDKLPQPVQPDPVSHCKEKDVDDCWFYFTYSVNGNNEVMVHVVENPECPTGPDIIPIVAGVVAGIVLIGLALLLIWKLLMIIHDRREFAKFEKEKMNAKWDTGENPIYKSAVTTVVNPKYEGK
# ASSAY: Jurkat cell adhesion assay on VCAM-1-coated wells
# EXPERIMENTAL SETUP: Jurkat cell adhesion to VCAM-1 (2 μg/mL); means ± SD, n = 3; tested 0.1 nM to 100 μM; read-out: EC50/IC50 (IC50 for compounds reducing cell adhesion)
*1 amine or outer side, *2 acyl side, *3 side chain or, on linkers, in order; H or OH if unused. Where a SMILES comes first, the peptide text is derived from it. Bridges are numbered along the chain shown (N, C = ends). [ ]: non-standard residue; d: D form. The star is where a group is joined. ξ: configuration not given here. ξPro(4ξ-NH2) = O=C(C1CC(N[*:3])CN1[*:1])[*:2]; X1 = O=C(Cc1ccc(N[*:1])cc1)[*:2]; NH(2-Me-phenyl) = Cc1ccccc1N*; CO = O=C([*:1])[*:2]

[
  {
    "MOLECULE": "Cc1ccccc1NC(=O)Nc1ccc(CC(=O)N2CC3CC2C(=O)NC(CC(C)C)C(=O)NC(CC(=O)O)C(=O)NC(C(C)C)C(=O)N3)cc1 (stereo not drawn) [Compound 14, c[(MPUPA)Amp-Leu-Asp-Val]] ({NH(2-Me-phenyl)-CO}-[X1][ξPro(4ξ-NH2)]LDV; lactam 2-C; configuration not given here)",
    "IC50": "> 100 µM"
  },
  {
    "MOLECULE": "Cc1ccccc1NC(=O)Nc1ccc(CC(=O)N2CC3CC2C(=O)NC(CCCNC(=N)N)C(=O)NCC(=O)NC(CC(=O)O)C(=O)N3)cc1 (stereo not drawn) [Compound 18, c[(MPUPA)Amp-Arg-Gly-Asp]] ({NH(2-Me-phenyl)-CO}-[X1][ξPro(4ξ-NH2)]RGD; lactam 2-C; configuration not given here)",
    "IC50": "> 100 µM"
  },
  {
    "MOLECULE": "Cc1ccccc1NC(=O)Nc1ccc(CC(=O)N2CC3CC2C(=O)NC(CC(C)C)C(=O)NC(CC(=O)O)C(=O)NC(C(C)C)C(=O)NCC(=O)N3)cc1 (stereo not drawn) [Compound 12, c[(MPUPA)Amp-Leu-Asp-Val-Gly]] ({NH(2-Me-phenyl)-CO}-[X1][ξPro(4ξ-NH2)]LDVG; lactam 2-C; configuration not given here)",
    "IC50": "> 100 µM"
  }
]
